# EXPERIMENTAL SYSTEM: cdPadR1 (Clostridium difficile R20291, UniProt A0A9R0CDW8 1-109)
# ASSAY PROCEDURE: EMSA; 20 mM Tris pH 8.0, 120 mM KCl, 10 mM MgCl2, 5 mM DTT, 12.5% glycerol, 125 ug/mL heparin, room temperature
# EXPERIMENTAL CONDITIONS: protein: recombinant; tags: N-terminal Strep II; chain copies: 2
PARAMETER: binding result

Pr120 (dsDNA) DNA 1: TTTTTATTCCTCCCTTTTTATTTATTAAAATTTATTATATTTTTCTATGATTCACTTAATTAAATTTCTCCATCTACAATTTTTCCATCTACAGATATAG DNA 2: CTATATCTGTAGATGGAAAAATTGTAGATGGAGAAATTTAATTAAGTGAATCATAGAAAAATATAATAAATTTTAATAAATAAAAAGGGAGGAATAAAAA: binds
Pr122 (dsDNA) DNA 1: TAGAGTACTATGTATTATTATAGTAAATAT DNA 2: ATATTTACTATAATAATACATAGTACTCTA: binds
